- Tested on: TK-10 renal
- protocol.notes: NCI tumour cell line growth inhibition, 48 h
Listing of recorded TGI by entry.

{"columns": ["compound", "TGI"],
 "data": [
  ["COc1ccc(/C(Cl)=C(\\C=O)c2ccc(Cl)cc2)cc1", "> 100 µM"],
  ["Cn1c(=O)c2[nH]cnc2n(C)c1=O", "> 100 µM"],
  ["OCC1CC2CC1C1(C2)OCCO1 (stereo unspecified)", "> 100 µM"],
  ["CCCCC[C@@H]1OC(=O)[C@@]2(CC3c4ccccc4C2c2ccccc23)[C@H]1C(=O)OC", "> 100 µM"],
  ["O=C(c1ccccc1)c1ccc2c(c1)N=C(c1ccc(Cl)c(Cl)c1)CC(c1ccc3ccccc3c1)N2 (stereo unspecified)", "> 100 µM"]
]}

Reported TGI, compound NC(=O)CN1CCN(c2nc(N3CCCC3)c3nc(Cl)c(NCc4ccccc4)nc3n2)CC1 : ____
34.7 µM

Reported TGI, compound NC(=NC1C2CC3CC(C2)CC1C3)Nc1ccc(I)cc1 (stereo unspecified) : ____
8.85 µM

Reported TGI, compound CN(C)c1ccc(/C=N/Nc2ccc(-c3nc4ccccc4[nH]3)cc2)cc1 : ____
> 50 µM

Reported TGI, compound CC(=O)N/N=C1\NN(C(C)=O)C2(S1)C(=O)Nc1ccccc12 (stereo unspecified) : ____
> 100 µM

Reported TGI, compound CC(C)(C)c1ccc(C(O)(c2ccc(C(C)(C)C)cc2)c2ccc(C(C)(C)C)cc2)cc1 : ____
> 100 µM

Reported TGI, compound COS(=O)CCOC(=O)c1ccccc1SSc1ccccc1C(=O)OCCS(=O)OC (stereo unspecified) : ____
> 100 µM

Reported TGI, compound CC(C)=CCC[C@](C)(O)[C@H]1CC[C@]2(C)[C@@H]1CC[C@@H]1[C@@]3(C)CC[C@H](OC(=O)CCC(=O)O)C(C)(C)[C@@H]3CC[C@]12C : ____
> 100 µM

Reported TGI, compound COc1cc(Nc2ncc(-c3ccccc3)o2)cc(OC)c1OC : ____
> 25 µM

Reported TGI, compound Cc1cc(C#Cc2ccccc2)ccc1-n1c(/C=C/c2ccc(O)cc2)nc2ccccc2c1=O : ____
32.8 µM

Reported TGI, compound CC1=CC(=O)c2[nH]c3ccccc3c2C1=O : ____
9.24 µM

Reported TGI, compound N#CCc1nc2c(s1)C(=O)c1ccccc1C2=O : ____
36.5 µM

Reported TGI, compound O=C(/C=C/c1cccs1)Nc1ncc(Cc2ccccc2F)s1 : ____
> 100 µM

###

- Tested on: A549 NSCLC
- protocol.notes: NCI tumour cell line growth inhibition, 48 h
Listing of recorded TGI by entry.

{"columns": ["molecule", "endpoint.result"],
 "data": [
  ["CC(=O)Oc1ccc(-c2c(OC(C)=O)c(OC(C)=O)c(-c3ccc(OC(C)=O)c(OC(C)=O)c3)c(OC(C)=O)c2OC(C)=O)cc1", "37.8 µM"],
  ["CCCCCCCCSC(SCCCCCCCC)=C1C(=O)N(c2ccccc2)N=C1C", "> 100 µM"],
  ["COc1cc(/C=C/C=C2\\CC(C)C/C(=C\\C=C\\c3ccc(O)c(OC)c3)C2=O)ccc1O (stereo unspecified)", "> 100 µM"],
  ["N#CC(/C(=N\\NC(N)=S)C(=O)NC1C2CC3CC(C2)CC1C3)c1ccc(Cl)cc1 (stereo unspecified)", "> 100 µM"],
  ["Cc1ccc(Nc2ccnc(Nc3cccc(C(N)=O)c3)n2)cc1O", "> 25 µM"],
  ["COCCOCCOCCOCCOc1ccc2c(c1)C(=O)c1nc3ncccc3c(=O)n1-2", "2.41 µM"]
]}

Reported TGI, molecule O=C(O)C1C2CC3CC2CC31 (stereo unspecified) : ____
> 100 µM

Reported TGI, molecule CC(=O)Nc1[nH]c(=O)[nH]c(=O)c1N(C(C)=O)C(C)=O : ____
> 100 µM

Reported TGI, molecule CC12CC(=O)NN=C1c1ccccc1C2 (stereo unspecified) : ____
> 100 µM

Reported TGI, molecule COc1ccc(/C=C(\C#N)c2nc(-c3cc4ccccc4oc3=O)cs2)cc1 : ____
> 100 µM

Reported TGI, molecule NC(Cc1ccccc1)C(=O)O (stereo unspecified) : ____
> 100 µM

###

- Tested on: CAKI-1 renal
- protocol.notes: NCI tumour cell line growth inhibition, 48 h
Listing of recorded GI50 by entry.

# count of solved cases: 5
{"columns": ["compound", "endpoint.result"],
 "data": [
  ["ClCc1ccc(Cn2cnc3ncnc(Cl)c32)cc1", "2.01 µM"],
  ["COc1cc(C(=O)c2c(-c3ccccc3)oc3ccccc23)cc(OC)c1O", "0.766 µM"],
  ["CCc1ccc(/C=C2/SC(=S)NC2=O)cc1", "24 µM"],
  ["O=C(/C=C/c1cccs1)Nc1ncc(Cc2ccccc2F)s1", "0.0753 µM"],
  ["O=C1/C(=C/c2ccc(Cl)c(Cl)c2)CN(C(=O)CCN2CCOCC2)C/C1=C\\c1ccc(Cl)c(Cl)c1", "0.579 µM"]
]}

Param readout = GI50; param system = CAKI-1 renal; param query = Fc1cc(Nc2ccc3c(OCCCN4CCOCC4)cccc3n2)ccc1Cl ; response: value
1.89 µM

Param readout = GI50; param system = CAKI-1 renal; param query = Cc1cc(I)cc(CN(C)CCCCN2CCCC2)c1O ; response: value
17.5 µM

Param readout = GI50; param system = CAKI-1 renal; param query = COc1ccccc1OCC(O)CO (stereo unspecified) ; response: value
> 100 µM

Param readout = GI50; param system = CAKI-1 renal; param query = CN1C=CN(Cc2ccc(-c3ccccn3)nc2)[CH-]1.CN1C=CN(Cc2ccc(-c3ccccn3)nc2)[CH-]1.[Au+3] ; response: value
18.4 µM

Param readout = GI50; param system = CAKI-1 renal; param query = CCC[CH2][Ge]([CH2]CCC)([CH2]CCC)[O]C(=O)CCl ; response: value
5.26 µM

Param readout = GI50; param system = CAKI-1 renal; param query = COCCOC(=O)CCn1cc(F)c(=O)[nH]c1=O ; response: value
4.07 µg/mL

###

- System: EKVX NSCLC
- protocol.notes: NCI tumour cell line growth inhibition, 48 h; in the data active = GI50 below about 0.43 µM; inactive = the rest
Use one of these outcomes when replying: 1 = active, -1 = inactive

Observe how each entry below is paired with its result.
{"columns": ["compound", "category.label"],
 "data": [
  ["C[C@@H]1CC[C@H]2C(CN3CCN(CC4=C(C(F)(F)F)O[C@@H]5O[C@@]6(C)CC[C@H]7[C@H](C)CC[C@@H]4[C@@]57OO6)CC3)=C(C(F)(F)F)O[C@@H]3O[C@@]4(C)CC[C@@H]1[C@]32OO4", -1],
  ["CCNC1=CC(=O)c2ncccc2C1=O", -1],
  ["COCCOCCOCCOCCOc1ccc2c(c1)C(=O)c1nc3ncccc3c(=O)n1-2", -1],
  ["O=C(O)CCN1C(=O)/C(=C/C(Cl)=C/c2ccccc2)SC1=S", -1],
  ["O.O=[Se](=O)(O)O.[NH-]C1CCCCC1[NH-].[Pt+2] (stereo not given)", -1]
]}

Lab log entry: CC(Cl)CC(=O)Nc1ccc2c(c1)oc(=O)c1cc(NC(=O)CC(C)Cl)ccc12 (stereo not given) — outcome as called in the assay?
-1

Lab log entry: Cn1cc(/C=C2\C(=O)Nc3cccnc32)c2ccccc21 — outcome as called in the assay?
-1

###

Listing of recorded TGI by entry.
- Tested on: SR leukemia
- protocol.notes: NCI tumour cell line growth inhibition, 48 h

# count of solved cases: 3
{"columns": ["compound", "study.target", "TGI"],
 "data": [
  ["O=[N+]([O-])c1ccc(-c2nc3ccccc3o2)cc1", "SR leukemia", "> 100 µM"],
  ["Cn1c(=O)c2[nH]cnc2n(C)c1=O", "SR leukemia", "> 100 µM"],
  ["O=C(Nc1ccc(-c2nc3ccc(NC(=O)c4ccc(Cl)cc4)cc3[nH]2)cc1)c1ccc(Cl)cc1", "SR leukemia", "4.34 µM"]
]}

Reported TGI, compound Fc1ccccc1C1SCC2=Nc3ccccc3CN21 (centres undefined) : ____
> 100 µM

Reported TGI, compound Cc1cc(C(C)(C)C)c(OCCCN2CCOCC2)c(C(C)(C)C)c1 : ____
47 µM

Reported TGI, compound CC1=C(C(=O)OC(C)C)C(c2cccc([N+](=O)[O-])c2)C(C(=O)OC(CO[N+](=O)[O-])CO[N+](=O)[O-])=C(C)N1 (centres undefined) : ____
15.6 µM

Reported TGI, compound COc1ccc(/C=C/CO)cc1OC : ____
> 100 µM

Reported TGI, compound COc1ccc(-c2nc(N)nc(-c3cc(C)ccc3O)c2Cl)cc1 : ____
> 100 µM

Reported TGI, compound O=c1c2c(=NCCCN3CCCC3)cc3c(=O)n(CCCN4CCCC4)c(=O)c4c(NCCCN5CCCC5)cc(c(O)n1CCCN1CCCC1)c2c4-3 : ____
81.9 µM
